Just for reference, ChEMBL document CHEMBL2417369 is where these values come from.

Biological target: Serine/threonine-protein kinase Chk1 (Homo sapiens)
Experiment: Inhibition of CHK1 (unknown origin) at 30 uM by microfluidic mobility shift assay relative to control
observable: inhibition (%)

INSERT INTO assay_data (compound, observed_result) VALUES
  ('O=S(=O)(c1cccc2cnccc12)N1CCC2(CCCN2)CC1', 10),
  ('O=C(C1CCC2(CCN(c3ncnc4[nH]cnc34)CC2)NC1)N1CCOCC1 (racemic)', 65),
  ('c1nc(N2CCCC3(CCNCC3)C2)c2nc[nH]c2n1', 71),
  ('c1nc(N2CCC3(CCCN3)CC2)c2nc[nH]c2n1', 85),
  ('OCC1CCC2(CCN(c3ncnc4[nH]cnc34)CC2)NC1 (racemic)', 27),
  ('O=S(=O)(c1cccc2cnccc12)N1CCC2(CCCNC2)CC1', 8),
  ('NC1(Cc2ccccc2)CCN(S(=O)(=O)c2cccc3cnccc23)CC1', 4),
  ('c1ccc(CC2CCC3(CCN(c4ncnc5[nH]cnc45)CC3)NC2)cc1 (racemic)', 67),
  ('c1nc(N2CCC3(CCCCC3)CC2)c2nc[nH]c2n1', 17),
  ('c1nc(N2CCC3(CCCOC3)CC2)c2nc[nH]c2n1', 26),
  ('COC(=O)C1CCC2(CCN(c3ncnc4[nH]cnc34)CC2)NC1 (racemic)', 36),
  ('OC1CCC2(CCN(c3ncnc4[nH]cnc34)CC2)NC1 (racemic)', 71),
  ('c1nc(N2CCCC23CCNCC3)c2nc[nH]c2n1', 8),
  ('CNC(=O)C1CCC2(CCN(c3ncnc4[nH]cnc34)CC2)NC1 (racemic)', 70),
  ('O=S(=O)(c1cccc2cnccc12)N1CCC2(CCCCN2)CC1', 0),
  ('O=S(=O)(c1cccc2cnccc12)N1CCC2(CCNC2)CC1', 46),
  ('c1ccc(CC2CCNC3(CCN(c4ncnc5[nH]cnc45)CC3)C2)cc1 (racemic)', 84),
  ('O=S(=O)(c1cccc2cnccc12)N1CCC2(CCC(O)CN2)CC1 (racemic)', 0),
  ('O=S(=O)(c1cccc2cnccc12)N1CCCC2(CCNCC2)C1', 2),
  ('c1nc(N2CCC3(CCNC3)CC2)c2nc[nH]c2n1', 84),
  ('c1ccc(C2CCC3(CCN(c4ncnc5[nH]cnc45)CC3)NC2)cc1 (stereo not drawn)', 69),
  ('O=C(O)C1CCC2(CCN(c3ncnc4[nH]cnc34)CC2)NC1 (racemic)', 0),
  ('c1nc(N2CCCC3(CCCNC3)C2)c2nc[nH]c2n1 (stereo not drawn)', 37);
